# assay method text: Cytotoxicity against african green monkey Vero cells
# Assay type: cell-based
# details: chlorocebus sabaeus
Provide the recorded CC50 for the entries that follow.
Give bare numbers, in µg/mL.

Consider the following illustrative entries.
O=c1c(O)c(-c2ccccc2)oc2cc(O)cc(O)c12 [GALANGIN] = 43.2
O=c1cc(-c2ccc(O)c(O)c2)oc2cc(O)cc(O)c12 [LUTEOLIN] = 22.9
O=c1cc(-c2ccccc2)oc2cc(O)cc(O)c12 [CHRYSIN] = 76.2
O=c1cc(-c2ccc(O)cc2)oc2cc(O)cc(O)c12 [APIGENIN] = 54
O=c1c(O)c(-c2ccc(O)cc2)oc2cc(O)cc(O)c12 [KAEMPFEROL] = 91.5

Now look at this one.
The molecule O=c1c(O)c(-c2ccc(O)c(O)c2)oc2cc(O)cc(O)c12 [QUERCETIN] showed CC50 equal to 151
